Test: Cytotoxicity assay (resazurin) in L6 rat skeletal muscle cells
Type: cell-based
Settings: L6 rat skeletal muscle cells (ATCC CRL-1458), read-out: Cytotoxic EC50 L6
reported.endpoint: EC50 at 72 h (nM)
Numbers only, in nM.

CC1(C)[C@@H](O)CC[C@]2(C)[C@H]3Cc4c(O)cc5c(c4O[C@]3(C)CC[C@@H]12)CN(CCO)C5=O
1390

Exercise: Query (compound): Cc1cc(O)c2c(c1)O[C@]1(C)CC[C@H]3C(C)(C)[C@@H](O)CC[C@]3(C)[C@H]1C2 ; field requested: EC50 at 72 h
Solution: 2000

###

Experiment: Cytotoxicity assay (resazurin) in L6 rat skeletal muscle cells
Type: cell-based
Settings: L6 rat skeletal muscle cells (ATCC CRL-1458), read-out: Cytotoxic EC50 L6
Please provide measured EC50 at 72 h for the entries that follow.

C=C1CC[C@H]2C(C)(C)C(=O)CC[C@]2(C)[C@H]1Cc1c(O)cc2c(c1O)C(=O)OC2
> 50 µM

Parameter requested: EC50 at 72 h. Apply to each item below.
1. CC1(C)C(=O)CC[C@]2(C)[C@H]3Cc4c(O)cc5c(c4O[C@]3(C)CC[C@@H]12)CN(CCO)C5=O
2. C/C(=C\CCC1(C)C=Cc2c(cc3c(c2O)C(=O)OC3)O1)CCC(O)C(C)(C)O (stereo not drawn)

Solution:
< 0.098 µM
> 50 µM
